SYSTEM_TESTED: Full length LIGHT G188A on HEK293FF cells (Homo sapiens (Human), UniProt O43557 1-240)
Sequence (O43557 whole entry G188A): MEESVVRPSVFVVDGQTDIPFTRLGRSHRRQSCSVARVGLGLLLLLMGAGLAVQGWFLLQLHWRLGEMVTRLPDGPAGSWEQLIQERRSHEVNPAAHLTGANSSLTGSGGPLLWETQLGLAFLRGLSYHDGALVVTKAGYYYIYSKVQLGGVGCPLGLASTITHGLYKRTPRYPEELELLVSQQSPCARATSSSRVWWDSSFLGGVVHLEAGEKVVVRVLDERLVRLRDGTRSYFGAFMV
ASSAY_PROCEDURE: flow cytometry, HEK293FF, mAb at EC50
ATTRIBUTE_MEASURED: % of WT binding (%)
Give a bare numeral; the unit % is implied.

[
  {
    "BINDER": "3E09 chimeric IgG4 mAb (antibody, V domains shown, Chimeric human IgG4 (S-to-P, L-to-E) with human CL, as m1; also called Parental 3E09) VH: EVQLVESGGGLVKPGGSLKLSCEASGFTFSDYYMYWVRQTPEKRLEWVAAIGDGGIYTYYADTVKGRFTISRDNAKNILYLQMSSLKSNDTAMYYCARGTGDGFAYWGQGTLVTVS VL: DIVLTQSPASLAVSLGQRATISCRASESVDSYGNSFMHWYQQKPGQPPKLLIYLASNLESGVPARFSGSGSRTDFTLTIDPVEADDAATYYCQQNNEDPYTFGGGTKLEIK",
    "REPORTED_RESULT": 35
  }
]

Would you mind telling me what % of WT binding value was observed for 2E08 chimeric IgG4 mAb (antibody, V domains shown, Chimeric human IgG4 (S-to-P, L-to-E) with human CL, as m1; also called Parental 2E08) VH: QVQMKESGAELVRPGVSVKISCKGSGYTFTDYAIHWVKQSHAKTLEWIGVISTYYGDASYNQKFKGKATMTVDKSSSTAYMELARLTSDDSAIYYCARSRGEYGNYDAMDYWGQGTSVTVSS VL: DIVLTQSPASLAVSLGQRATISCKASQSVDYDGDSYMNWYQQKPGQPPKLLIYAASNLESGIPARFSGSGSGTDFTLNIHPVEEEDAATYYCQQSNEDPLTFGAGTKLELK ? 44
